Test system: Lolium perenne (LOLPE)
Test summary: Post-emergence efficacy, glasshouse, evaluated after 13 days
Format: in vivo
Measurement setup: Lolium perenne, 312 h; post-emergence application, 500 g/Ha, evaluated after 13 days; read-out: Control of weed species LOLPE (100=total damage to plant; 0=no damage to plant)
Property: pest or weed control at 500 g/ha (%)
Give your result in % as a bare value.

Reference set (8 entries):
compound="CCNC(=O)c1cc[n+](CCCC(=O)O)nc1 [Compound A74]" assayed_system="Lolium perenne (LOLPE)" units_label=% assay_value=80
compound="CN(CCS(C)(=O)=O)C(=O)c1cc[n+](CCC(=O)O)nc1 [Compound A135]" assayed_system="Lolium perenne (LOLPE)" units_label=% assay_value=70
compound="O=C(NCC(F)(F)F)c1cc[n+](CCS(=O)(=O)[O-])nc1 [Compound A36]" assayed_system="Lolium perenne (LOLPE)" units_label=% assay_value=20
compound="O=C(Nc1ccccc1)c1cc[n+](CCS(=O)(=O)[O-])nc1 [Compound A7]" assayed_system="Lolium perenne (LOLPE)" units_label=% assay_value=20
compound="O=C(NCc1ccccc1)c1cc[n+](CCS(=O)(=O)[O-])nc1 [Compound A20]" assayed_system="Lolium perenne (LOLPE)" units_label=% assay_value=30
compound="CCNC(=O)c1cc[n+](CCCS(=O)(=O)[O-])nc1 [Compound A76]" assayed_system="Lolium perenne (LOLPE)" units_label=% assay_value=70
compound="N#CCCNC(=O)c1cc[n+](CCC(=O)O)nc1 [Compound A113]" assayed_system="Lolium perenne (LOLPE)" units_label=% assay_value=90
compound="C#CC(C)(C)NC(=O)c1cc[n+](CCC(=O)O)nc1 [Compound A77]" assayed_system="Lolium perenne (LOLPE)" units_label=% assay_value=80

# get_value(readout='pest or weed control at 500 g/ha', item= CNS(=O)(=O)CCNC(=O)c1cc[n+](CCC(=O)O)nc1 [Compound A111] )
70

# get_value(readout='pest or weed control at 500 g/ha', item= C=CCNC(=O)c1cc[n+](CCC(=O)O)nc1 [Compound A19] )
80

---

Item-by-item account of pest or weed control at 500 g/ha
Tested on: Setaria faberi (SETFA)
Test summary: Post-emergence efficacy, glasshouse, evaluated after 13 days
Format: in vivo
Measurement setup: Setaria faberi, 312 h; post-emergence application, 500 g/Ha, evaluated after 13 days; read-out: Control of weed species SETFA (100=total damage to plant; 0=no damage to plant)
Procedure: Seeds of a variety of test species were sown in standard soil in pots. […] The test plants were then grown in a glasshouse under controlled conditions (at 24/16° C., day/night; 14 hours light; 65% humidity) and watered twice daily. After 13 days the test was evaluated (100=total damage to plant; 0=no damage to plant). […]
Give your result in % as a bare value.

Reference set (3 entries):
molecule=O=C(O)CC[n+]1ccc(C(=O)Nc2ccccc2)cn1 assay_value=60
molecule=CN(CCS(C)(=O)=O)C(=O)c1cc[n+](CCC(=O)O)nc1 assay_value=100
molecule=CNC(=O)c1cc[n+](CCS(=O)(=O)[O-])nc1-c1ccccc1 assay_value=20

# get_value(readout='pest or weed control at 500 g/ha', item= O=C(O)CC[n+]1ccc(C(=O)NC2CCCC2)cn1 )
90

# get_value(readout='pest or weed control at 500 g/ha', item= O=C(Nc1ccccc1O)c1cc[n+](CCS(=O)(=O)[O-])nc1 )
20

# get_value(readout='pest or weed control at 500 g/ha', item= CC(=O)CCNC(=O)c1cc[n+](CCC(=O)O)nc1 )
100

# get_value(readout='pest or weed control at 500 g/ha', item= CC(CO)NC(=O)c1cc[n+](CCC(=O)O)nc1 (stereo not shown) )
100

# get_value(readout='pest or weed control at 500 g/ha', item= O=C(O)CC[n+]1ccc(C(=O)NC2CC2(F)F)cn1 (stereo not shown) )
100

# get_value(readout='pest or weed control at 500 g/ha', item= CC#CCNC(=O)c1cc[n+](CCC(=O)O)nc1 )
100

# get_value(readout='pest or weed control at 500 g/ha', item= O=C(O)CC[n+]1ccc(C(=O)NCCc2nccs2)cn1 )
80

---

System: Lolium perenne (LOLPE)
Test summary: Post-emergence efficacy, glasshouse, evaluated after 13 days
Assay type: in vivo
Measurement setup: Lolium perenne, 312 h; post-emergence application, 500 g/Ha, evaluated after 13 days; read-out: Control of weed species LOLPE (100=total damage to plant; 0=no damage to plant)
Property: pest or weed control at 500 g/ha (%)
Give your result in % as a bare value.

Reference set (4 entries):
compound="Cn1ncnc1CCNC(=O)c1cc[n+](CCC(=O)O)nc1 [Compound A144]" property="pest or weed control at 500 g/ha" assay_value=60
compound="N#CCNC(=O)c1cc[n+](CCC(=O)O)nc1 [Compound A90]" property="pest or weed control at 500 g/ha" assay_value=70
compound="O=C(c1cc[n+](CCS(=O)(=O)[O-])nc1)N1CCOCC1 [Compound A28]" property="pest or weed control at 500 g/ha" assay_value=60
compound="O=C(O)CC[n+]1ccc(C(=O)NCC2CC2)cn1 [Compound A65]" property="pest or weed control at 500 g/ha" assay_value=50

Proceed to the following item.
# get_value(readout='pest or weed control at 500 g/ha', item= O=C(NC1CC1)c1cc[n+](CCS(=O)(=O)[O-])nc1 [Compound A30] )
70

---

Tested on: Digitaria sanguinalis (DIGSA)
Test summary: Post-emergence efficacy, glasshouse, evaluated after 13 days
Type: in vivo
Measurement setup: Digitaria sanguinalis, 312 h; post-emergence application, 500 g/Ha, evaluated after 13 days; read-out: Control of weed species DIGSA (100=total damage to plant; 0=no damage to plant)
Counter-ions that a name gives are not always drawn.
Property: pest or weed control at 500 g/ha (%)
Give your result in % as a bare value.

Reference set (5 entries):
molecule="CCNC(=O)c1cc[n+](CCCC(=O)O)nc1 [Compound A74]" assayed_system="Digitaria sanguinalis (DIGSA)" property="pest or weed control at 500 g/ha" units_label=% assay_value=80
molecule="CCNC(=O)c1cc[n+](CC(C)(C)C(=O)O)nc1 [Compound A88]" assayed_system="Digitaria sanguinalis (DIGSA)" property="pest or weed control at 500 g/ha" units_label=% assay_value=80
molecule="CS(=O)(=O)CCNC(=O)c1cc[n+](CCC(=O)O)nc1 [Compound A104]" assayed_system="Digitaria sanguinalis (DIGSA)" property="pest or weed control at 500 g/ha" units_label=% assay_value=100
molecule="O=C(O)CC[n+]1ccc(C(=O)N2CCSCC2)cn1 [Compound A112]" assayed_system="Digitaria sanguinalis (DIGSA)" property="pest or weed control at 500 g/ha" units_label=% assay_value=100
molecule="CN1CCN(C(=O)c2cc[n+](CCC(=O)O)nc2)CC1 [Compound A133]" assayed_system="Digitaria sanguinalis (DIGSA)" property="pest or weed control at 500 g/ha" units_label=% assay_value=90

# get_value(readout='pest or weed control at 500 g/ha', item= CCCCNC(=O)c1cc[n+](CCS(=O)(=O)[O-])nc1 [Compound A50] )
60

# get_value(readout='pest or weed control at 500 g/ha', item= CN(CC#N)C(=O)c1cc[n+](CCC(=O)O)nc1 [Compound A107] )
40

# get_value(readout='pest or weed control at 500 g/ha', item= CN(C(=O)c1cc[n+](CCC(=O)O)nc1)c1ccccc1 [Compound A38, trifluoroacetate] )
70

# get_value(readout='pest or weed control at 500 g/ha', item= CCSCCNC(=O)c1cc[n+](CCC(=O)O)nc1 [Compound A120] )
100

---

System: Echinochloa crus-galli (ECHCG)
Test summary: Post-emergence efficacy, glasshouse, evaluated after 13 days
Assay type: in vivo
Measurement setup: Echinochloa crus-galli, 312 h; post-emergence application, 500 g/Ha, evaluated after 13 days; read-out: Control of weed species ECHCG (100=total damage to plant; 0=no damage to plant)
pest or weed control at 500 g/ha strictly under 60% means condition met; at 60% or over means condition not met.

compound="CC(O)CCNC(=O)c1cc[n+](CCC(=O)O)nc1 (stereo not drawn)" class="condition met"
compound=CCNC(=O)c1cc[n+](CC(=O)OC)nc1 class="condition met"
compound=O=C(O)CC[n+]1ccc(C(=O)NCC2CC2)cn1 class="condition met"

Problem: For the compound CCNC(=O)c1cc[n+](C(C)(C)CC(=O)O)nc1 , is pest or weed control at 500 g/ha under 60%?
condition met

Problem: For the compound N#CCNC(=O)c1cc[n+](CCC(=O)O)nc1 , is pest or weed control at 500 g/ha under 60%?
condition not met

Problem: For the compound O=C(O)CC[n+]1ccc(C(=O)NCCc2nccs2)cn1 , is pest or weed control at 500 g/ha under 60%?
condition met

Problem: For the compound C#CCNC(=O)c1cc[n+](CCC(=O)O)nc1 , is pest or weed control at 500 g/ha under 60%?
condition not met

Problem: For the compound CS(=O)(=O)CCNC(=O)c1cc[n+](CCC(=O)O)nc1 , is pest or weed control at 500 g/ha under 60%?
condition not met
